- System: MCF7 breast
- protocolDescription: NCI-60 one-dose screen, 48 h
- assayConditions: 10 µM unless noted
Compounds without any hit were thinned out: in the full panel of roughly 83,000, 20% have a hit. Calls of active or inactive are those of the source. The calls were made as follows: active = growth percent below 10; inactive = the rest.
The reply should name one outcome from active, inactive

Solved cases (5 shown):
INSERT INTO results (compound, assignedclass) VALUES
  ('Fc1ccc2[nH]cc(-c3nc(-c4c[nH]c5ccncc45)cs3)c2c1', 'active'),
  ('NC(N)=NS(=O)(=O)c1ccc(NC2=C(I)C(=O)c3ncccc3C2=O)cc1', 'inactive'),
  ('N#Cc1cncc(-c2ccc3ncnc(Nc4cccc(Cl)c4)c3c2)c1', 'inactive'),
  ('CN(Cc1ccccc1)c1nc(Cl)c(C2CC(c3ccccc3)=NN2c2ccccc2)s1 (configuration not stated)', 'inactive'),
  ('Cc1cc2c(cc1C)N(C(=O)CCl)CC(=O)N2', 'inactive');

Req: // return assay outcome for [2H]C([2H])([2H])Oc1ccc(F)cc1/C=C/C(=O)/C=C(O)/C=C/c1cc(F)ccc1OC([2H])([2H])[2H]
Resp: inactive

Req: Then COc1ccc(C2=NN(C(C)=O)C(c3cn(-c4ccccc4)nc3-c3ccc(Cl)cc3)C2)cc1 (configuration not stated) ?
Resp: inactive

Req: Then CCN1C(=O)N(CC)C2C1NN=c1s/c(=C\c3cnc(C)n3C)c(=O)n12 (configuration not stated) ?
Resp: inactive

Req: Then CCNC(=O)Oc1ccc(/C(=C(/C)Cc2ccc(OC)cc2)c2ccc(OCCN3CCCCC3)cc2)cc1 ?
Resp: inactive

Req: Then COc1ccc(-c2nc(/C=C3\C(=O)N(C)c4ccccc43)c3ccccn23)cc1 ?
Resp: inactive

Req: Then CC1(C)CC[C@]23CC[C@]4(C)[C@H](CC[C@@H]5[C@@]6(C)C/C(=C/c7ccncc7)C(=O)C(C)(C)[C@@H]6CC[C@]54C)[C@H]2[C@H]1OC3 ?
Resp: inactive

Req: Then O=C(Nc1ccccc1O)c1ccc(CNC(=O)c2ccsc2Nc2ccnc(C(F)(F)F)c2)cc1 ?
Resp: inactive
